// reported CC50 at 6 days for each item listed
- assayComment: Cytotoxicity assay (XTT dye reduction) in MT-2 cells
- Type: cell-based
- assaySetup: human, six days

1. COc1ncc(OC)c2c(C(=O)C(=O)N3CCN(C(=O)c4ccccc4)CC3)c[nH]c12; > 10 µM

Here is the next item to consider.
## Input Indicate its recorded CC50 at 6 days; the compound in question is COc1cnc(-n2ccc(C)n2)c2[nH]cc(C(=O)C(=O)N3CCN(C(=O)c4ccccc4)[C@H](C)C3)c12
## Output > 10 µM

---

- assayComment: MAP studies G and H: PO dosing of diester IIa and monoester II′a in rats
- Format: in vivo, rat
- assaySetup: male, Sprague-Dawley, rat, plasma, po, 5 mg/kg, IVa following PO dosing of diester IIa
measurementName: bioavailability (%)
Give just the number in %; leave the unit off.

## Input Indicate its recorded bioavailability; the compound in question is COc1ncc(OC)c2c(C(=O)C(=O)N3CCN(C(=O)c4ccccc4)CC3)c[nH]c12
## Output 33
